The measurements presented in this section are drawn from patent US11654199B2.

Target: human TLR8 (Homo sapiens)
Sequence (Q9NR97 27-1041): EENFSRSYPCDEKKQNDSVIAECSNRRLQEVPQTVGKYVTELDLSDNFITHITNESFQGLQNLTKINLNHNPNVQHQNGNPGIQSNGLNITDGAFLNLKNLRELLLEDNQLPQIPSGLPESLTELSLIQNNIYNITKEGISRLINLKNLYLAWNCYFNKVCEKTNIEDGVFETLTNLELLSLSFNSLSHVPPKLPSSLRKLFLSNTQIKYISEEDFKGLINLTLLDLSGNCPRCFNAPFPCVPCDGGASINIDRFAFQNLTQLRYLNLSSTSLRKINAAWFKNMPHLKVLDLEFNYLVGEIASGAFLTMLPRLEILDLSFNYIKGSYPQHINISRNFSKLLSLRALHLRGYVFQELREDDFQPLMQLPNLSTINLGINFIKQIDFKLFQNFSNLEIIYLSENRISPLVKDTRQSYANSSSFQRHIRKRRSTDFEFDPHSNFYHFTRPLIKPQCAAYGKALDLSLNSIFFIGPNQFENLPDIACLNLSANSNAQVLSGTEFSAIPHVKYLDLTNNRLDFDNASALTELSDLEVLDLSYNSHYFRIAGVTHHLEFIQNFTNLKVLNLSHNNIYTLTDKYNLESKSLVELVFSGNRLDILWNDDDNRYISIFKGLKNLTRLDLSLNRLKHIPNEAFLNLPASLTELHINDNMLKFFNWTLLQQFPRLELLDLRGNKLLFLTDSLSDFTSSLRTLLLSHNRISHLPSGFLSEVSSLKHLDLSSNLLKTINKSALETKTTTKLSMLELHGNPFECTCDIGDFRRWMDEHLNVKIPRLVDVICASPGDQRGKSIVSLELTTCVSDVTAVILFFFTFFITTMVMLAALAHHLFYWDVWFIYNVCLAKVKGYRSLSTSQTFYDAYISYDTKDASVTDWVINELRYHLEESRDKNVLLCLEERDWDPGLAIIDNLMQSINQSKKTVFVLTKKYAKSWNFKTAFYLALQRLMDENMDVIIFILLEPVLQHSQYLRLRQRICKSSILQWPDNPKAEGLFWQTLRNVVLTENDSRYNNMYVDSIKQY
Experiment: HEK293 NFKB reporter assay, human TLR8
Conditions: HEK293 NFKB reporter cells expressing human TLR8; read-out: HEK293 hTLR8 EC50
Description: Each compound was synthesized, purified, and characterized by mass spectrometry and shown to have the mass indicated. Additional experimental procedures are found in the Examples. Activity against HEK293 NFKB reporter cells expressing human TLR7 or human TLR8 was measured according to Example 202. HEK293 reporter cells expressing human TLR7 or human TLR8 were purchased from Invivogen and vendor protocols were followed for cellular propagation and experimentation. […]
Consider the following partition of reported EC50 into named classes: bin 1: < 2000 nM; bin 2: ≥ 2000 nM and < 3000 nM; bin 3: ≥ 3000 nM

[[record]]
structure_notation = "CCCN(OCC)C(=O)C1=Cc2sc(CCCCCN)cc2N=C(N)C1"
class_label = "bin 1"

[[record]]
structure_notation = "CCCN(OCC)C(=O)C1=Cc2sc(CN3CC4(CCN4Cc4ccccc4)C3)cc2N=C(N)C1"
class_label = "bin 1"

[[record]]
structure_notation = "CCCN(OCC)C(=O)C1=Cc2sc(C#CCCCNC(=O)OC(C)(C)C)cc2N=C(N)C1"
class_label = "bin 2"

[[record]]
structure_notation = "CCCN(C(=O)C1=Cc2sccc2N=C(N)C1)N(C)CC"
class_label = "bin 3"

[[record]]
structure_notation = "CCCN(CCCNC(=O)OC1CCC1)C(=O)C1=Cc2sc(CN)cc2N=C(N)C1"
class_label = "bin 3"

[[record]]
structure_notation = "CCCN(Cc1ccc(CNC)cc1)C(=O)C1=Cc2sc(CCCCCN(C)C)cc2N=C(N)C1"
class_label = "bin 1"

[[record]]
structure_notation = "CCCN(Cc1ncco1)C(=O)C1=Cc2sc(CC3CNC3)cc2N=C(N)C1"
class_label = "bin 3"

[[record]]
structure_notation = "CCCN(CCC)C(=O)C1=Cc2sc(COCCCNC(=O)OC(C)(C)C)cc2N=C(N)C1"
class_label = "bin 3"

[[record]]
structure_notation = "CCCN(OCC)C(=O)C1=Cc2sc(CN3CC4CCC(C3)N4)cc2N=C(N)C1"
class_label = "bin 1"

[[record]]
structure_notation = "CCCN(Cc1cnc(CNC(=O)OC(C)(C)C)cn1)C(=O)C1=Cc2sccc2N=C(N)C1"
class_label = "bin 3"

[[record]]
structure_notation = "CCCN(CCC)C(=O)C1=Cc2sc(C#CCCCNC(=O)OC(C)(C)C)cc2N=C(N)C1"
class_label = "bin 3"

[[record]]
structure_notation = "CCCN(CCC)C(=O)C1=Cc2sc(CNC(=O)CN)cc2N=C(N)C1"
class_label = "bin 2"

[[record]]
structure_notation = "CCON(Cc1ccc(CN)cc1)C(=O)C1=Cc2sccc2N=C(N)C1"
class_label = "bin 3"

[[record]]
structure_notation = "CCCN(Cc1cnc(CN)c(C(F)(F)F)c1)C(=O)C1=Cc2sccc2N=C(N)C1"
class_label = "bin 1"

[[record]]
structure_notation = "CCCN(CCCNC(=O)OC1CCC1)C(=O)C1=Cc2sc(CC3CCN(C(=O)OC(C)(C)C)CC3)cc2N=C(N)C1"
class_label = "bin 3"

[[record]]
structure_notation = "CCCN(NCC)C(=O)C1=Cc2sccc2N=C(N)C1"
class_label = "bin 3"

[[record]]
structure_notation = "CCCN(Cc1ccc(CN(C)C)cc1)C(=O)C1=Cc2sc(CCCCCN)cc2N=C(N)C1"
class_label = "bin 2"

[[record]]
structure_notation = "CCCN(OCC)C(=O)C1=Cc2sc(C#CC3CCNCC3)cc2N=C(N)C1"
class_label = "bin 1"

